Taken from patent US20230312473A1.

# EXPERIMENTAL_DETAILS: Solubility of compound 1 in the solvent under evaluation at 22° C. and 65° C. (crystallization study)
# Type: physicochemical
# MEASUREMENT_CONDITIONS: THF, 22 °C, organic solvent or mixture, thermodynamic from solid, solvent: THF; read-out: Solubility at 22° C.
MEASURED_PARAMETER: solubility

Entry Nc1ncc(-c2cc(N3C[C@@H]4C[C@H]3CO4)nc(N3CCC(F)(F)C3)n2)cc1OC(F)F [Compound 1] , solubility reported as > 50 mg/mL

###

# EXPERIMENTAL_DETAILS: Solubility of compound 1 in the solvent under evaluation at 22° C. and 65° C. (crystallization study)
# Assay type: physicochemical
# MEASUREMENT_CONDITIONS: s-butanol, 65 °C, organic solvent or mixture, thermodynamic from solid, solvent: s-butanol; read-out: Solubility at 65° C.
MEASURED_PARAMETER: solubility

Entry Nc1ncc(-c2cc(N3C[C@@H]4C[C@H]3CO4)nc(N3CCC(F)(F)C3)n2)cc1OC(F)F [Compound 1] , solubility reported as < 50 mg/mL
